Measured On: Left-right determination factor 2 (Homo sapiens)
Test Summary: LEFTY2 binders on small-molecule microarrays, primary screen, biochemical, small-molecule microarray, 635 nm fluorescence scan (AID 1110)
Condition Set: LEFTY2 binding, higher = more signal
Property Name: composite z-score
// print number alone

For the compound `COc1ccc([Si](C)(C)[C@H]2[C@H](CCO)O[C@@]3(C(=O)N(Cc4ccc(N(C=O)c5ccccc5)cc4)c4ccccc43)[C@@H]2C)cc1` , the measured composite z-score on Left-right determination factor 2 (Homo sapiens) was -0.677

For the compound `COCCOC(=O)N1C(=O)[C@@]2(c3cc(C#CCNC(N)=O)ccc31)[C@H](C(=O)N1CCN(c3ncccn3)CC1)[C@H]1C(=O)O[C@H](c3ccccc3)[C@H](c3ccccc3)N1[C@@H]2c1ccc(OCCO)cc1` , the measured composite z-score on Left-right determination factor 2 (Homo sapiens) was 0.188

For the compound CCN(CC)c1ccc(N2CC=CC34O[C@@H]5C=CCCOC(=O)C5[C@H]3C(=O)N(CCCCCCO)[C@@H]4C2=O)cc1 (stereo partly drawn) , the measured composite z-score on Left-right determination factor 2 (Homo sapiens) was -0.395
